- Tested on: HOP-92 NSCLC
- Assay procedure: NCI tumour cell line growth inhibition, 48 h; in the data active = GI50 below about 0.43 µM; inactive = the rest
// allowed return values: active, inactive

Worked set:
{"columns": ["Compound", "Qualitative label"],
 "data": [
  ["O=C(c1ccc2ccccc2c1)c1c(C(F)(F)F)n([O-])c2cc(F)c(F)cc2[n+]1=O", "inactive"],
  ["C=CCN(/C=C1/C(=O)O[C@H](COC)[C@@]2(C)C1=C(O)C(=O)C1=C2[C@H](OC(C)=O)C[C@]2(C)C(=O)CC[C@@H]12)CC=C", "active"],
  ["CCN(CC)CCNc1ccc([N+](=O)[O-])c2sc3ccccc3c(=O)c12", "inactive"],
  ["C/C(=N\\O)c1cccc(Nc2cc(-n3ccnn3)c3ccccc3n2)c1", "inactive"],
  ["Cc1ccc(S(=O)(=O)NCCNC2=CC(=O)c3nc4ccccc4c4ccnc2c34)cc1", "inactive"],
  ["CCCC(=O)Nc1cc(C(=O)N2C[C@@H]3C[C@]34C2=CC(=O)c2[nH]cc(C)c24)n(COC)c1", "inactive"],
  ["COc1cc2c(c(OC)c1OC)-c1ccc(N)c(=O)cc1[C@@H](NC(C)=O)CC2", "active"],
  ["Clc1ccc(N2N=C(c3cccc(Nc4ccncc4)c3)CC2c2ccc3c(c2)OCO3)cc1 (stereo unspecified)", "inactive"],
  ["Oc1ccc(C(c2ccc(O)cc2)c2ccc(Cl)cn2)cc1", "active"],
  ["CCCc1c(CC)c(=N)c2ccccc2n1C", "inactive"]
]}

Hi, do you know how O=C(Nc1ccc(F)cc1)c1ccc(NC2=C(Cl)C(=O)N(Cc3ccccc3)C2=O)cc1 came out in this test? inactive

----------
- Tested on: HL-60(TB) leukemia
- Assay procedure: NCI tumour cell line growth inhibition, 48 h
Kindly supply the reported TGI values for the records listed here.

Example entries and their recorded answers appear below.
{"columns": ["Molecule", "TGI"],
 "data": [
  ["CCOC(=O)c1c(N2CCCC2)ncn(-c2ccccc2)c1=S", "> 100 µM"],
  ["COc1ccc(C2SCC(=O)N2NC(=O)C(O)c2ccccc2)cc1OC (stereo unspecified)", "> 100 µM"],
  ["c1ccc(CCNCc2ccco2)nc1", "> 100 µM"],
  ["C[C@H](NC(=O)[C@@H]1CSSC[C@@H](NC(=O)c2nc3ccccc3cc2O)C(=O)NCC(=O)N1C)c1ccccc1", "4.78 µM"],
  ["CCOC(=O)C(=[N+]=[N-])C(=O)Nc1nn2nnnc2c2ccccc12", "> 100 µM"]
]}

Please report TGI for every entry that follows.
1. C(=C\c1cccc(/C=C/c2ccccn2)n1)/c1ccccn1
2. Cc1cc(O)c(C(C)C)cc1SC#N
3. CC(C)C1(O)C(c2ccccc2)=C(c2ccccc2)C(c2ccccc2)=C1c1ccccc1
4. O=C1CCC2(CCO1)OCCO2
5. CCCc1c(CC)c(=N)c2ccccc2n1C

> 100 µM
> 100 µM
7.07 µM
> 100 µM
> 100 µM

Item: CN1CCN(c2ccc(NC(=O)c3nc4ccc5[nH]ncc5c4c4c3CCCC4)cc2C(F)(F)F)CC1 Test system: HL-60(TB) leukemia Read-out: TGI Value: ? 2.1 µM

----------
- System: HCC-2998 colon
- Assay procedure: NCI tumour cell line growth inhibition, 48 h
Reported property: TGI (µM)
One number for each entry, in µM.

{"columns": ["Compound", "Numeric readout"],
 "data": [
  ["O=C(O)C1C2CCC(O2)C1C(=O)N1CCCCC1 (stereo not drawn)", 11.9],
  ["O=[N+]([O-])c1c(Br)cc(Br)c2c1Nc1c(ccc(Cl)c1Cl)S2", 28.8],
  ["O=C(/C=C/C12c3ccccc3C(c3ccccc31)C1C(=O)N(c3ccccc3)C(=O)C12)c1ccccc1 (stereo not drawn)", 3.62]
]}

Please report TGI for every entry that follows.
1. COc1cc(/C=C/C(=O)c2c(=O)o[nH][n+]2-c2ccccc2)ccc1[O-]
2. c1ccc(CCN2CCc3[nH]c4ccccc4c3C2)cc1
3. O=C(CCN1CCCC1)Nc1ccc2sc3ccccc3c(=O)c2n1
4. CCOC(=O)c1c(CN2CCNCC2)nc2ccccc2c1-c1ccccc1
5. CC1(C)CC[C@H](Nc2ncc(C(F)(F)F)c(-c3c[nH]c4c(P(C)(C)=O)c(C#N)ccc34)n2)CN1
6. CCCCc1cc2c(C)cc(=O)oc2c(O)c1O
7. COc1cc(CCN)c2c(c1OC)SSSSS2
8. OCC1OC(n2cnc3cncnc32)C(O)C1O (stereo not drawn)

1. 6.28
2. 30.5
3. 17
4. 3.63
5. 11.6
6. 15.7
7. 2.08
8. 2.84

Please report TGI for every entry that follows.
1. CC(C)C1(O)C(c2ccccc2)=C(c2ccccc2)C(c2ccccc2)=C1c1ccccc1
2. O=C1C=CC(=O)C(CNc2ccc(C(=O)OC34CC5CC(CC(C5)C3)C4)cc2)=C1
3. COc1ccc(Nc2ncc(Br)c(NCCCNC(=O)C3CCC3)n2)cc1
4. O=C1c2ccc([N+](=O)[O-])cc2-c2c1c1ccccc1c(=O)n2CCCNCCCNCCCn1c2c(c3ccc([N+](=O)[O-])cc3c1=O)C(=O)c1ccccc1-2

1. 30.4
2. 32.4
3. 58.1
4. 9.77

----------
- Tested on: HS 578T breast
- Assay procedure: NCI tumour cell line growth inhibition, 48 h
Reported property: TGI (µM)
Answers are plain numbers, in µM.

{"columns": ["Structure smiles", "Assayed system", "TGI / µM"],
 "data": [
  ["CCOC(=O)C1=C(C(=O)c2ccc(C)cc2)C(c2cccc([N+](=O)[O-])c2)C(C(=O)c2ccc(C)cc2)=C(C(=O)OCC)N1", "HS 578T breast", 63.9],
  ["Nc1nc(-c2ccccc2N=NN2CCCC2)nc2ccccc12", "HS 578T breast", 18],
  ["CCN(CC)CCNc1ccc([N+](=O)[O-])c2sc3ccccc3c(=O)c12", "HS 578T breast", 8.15]
]}

From here, focus on the item given below.
Would you kindly share the measured TGI for COc1cc(/C=C/C(=O)c2c(=O)o[nH][n+]2-c2ccccc2)ccc1[O-] ? 9.6

----------
- Test system: BT-549 breast
- Assay procedure: NCI tumour cell line growth inhibition, 48 h; in the data active = GI50 below about 0.43 µM; inactive = the rest
// allowed return values: active, inactive

{"columns": ["Compound", "Assayed system", "Qualitative label"],
 "data": [
  ["C=CCN(/C=C1/C(=O)O[C@H](COC)[C@@]2(C)C1=C(O)C(=O)C1=C2[C@H](OC(C)=O)C[C@]2(C)C(=O)CC[C@@H]12)CC=C", "BT-549 breast", "active"],
  ["Cc1cc(/C=C\\c2ccc3ccccc3[n+]2C)c(O)c2ncccc12", "BT-549 breast", "active"],
  ["COc1cc2c(c(OC)c1OC)-c1ccc(N)c(=O)cc1[C@@H](NC(C)=O)CC2", "BT-549 breast", "active"],
  ["COc1ccc(-c2nc3sc(-c4ccc(Cl)cc4)cn3n2)cc1", "BT-549 breast", "inactive"],
  ["CC(CN(C)C)Nc1c2ccccc2nc2cccc([N+](=O)[O-])c12 (centres undefined)", "BT-549 breast", "inactive"]
]}

Hi, do you know how C/C(=N\O)c1cccc(Nc2cc(-n3ccnn3)c3ccccc3n2)c1 came out in this test? inactive

Then what about the compound Oc1ccc(C(c2ccc(O)cc2)c2ccc(Cl)cn2)cc1 ? active

Then what about the compound CC1(C)CC[C@H](Nc2ncc(C(F)(F)F)c(-c3c[nH]c4c(P(C)(C)=O)c(C#N)ccc34)n2)CN1 ? active

Then what about the compound COc1ccc2c(c1)C(=O)c1c-2n(CCCN=[N+]=[N-])c(=O)c2cc(N(C)C)ccc12 ? inactive

----------
Kindly supply the reported TGI values for the records listed here.
- System: OVCAR-4 ovarian
- Assay procedure: NCI tumour cell line growth inhibition, 48 h
Numbers only, in µM.

{"columns": ["Molecule", "Value unit", "TGI"],
 "data": [
  ["C/C(=N\\O)c1cccc(Nc2cc(-n3ccnn3)c3ccccc3n2)c1", "µM", 27.8],
  ["CC(C)=CCC[C@@H](C)C1=C(Nc2ccccc2Cl)C(O)=C(C)C(=O)C1=O", "µM", 43.3],
  ["CC(C)CNCC(O)COc1ccc(C(C)(C)c2ccc(OCC(O)CNCC(C)C)cc2)cc1 (stereo not given)", "µM", 21.4],
  ["O=C(c1ccc2ccccc2c1)c1c(C(F)(F)F)n([O-])c2cc(F)c(F)cc2[n+]1=O", "µM", 27.2],
  ["COc1cc2c(cc1OCCCC(=O)Nc1cc(C(=O)Nc3cc(C(=O)Nc4cc(C(=O)NCCCN(C)C)n(C)n4)n(C)n3)n(C)n1)N=CC1CCCN1C2=O (stereo not given)", "µM", 35.7],
  ["CCN(CC)CCNc1ccc([N+](=O)[O-])c2sc3ccccc3c(=O)c12", "µM", 2.81],
  ["COc1ccc(-c2nc3sc(-c4ccc(Cl)cc4)cn3n2)cc1", "µM", 1.63],
  ["COc1ccccc1/C=C/[N+](=O)[O-]", "µM", 37.7]
]}

From here, focus on the item given below.
Item: O=C1C=CC(=O)C(CNc2ccc(C(=O)OC34CC5CC(CC(C5)C3)C4)cc2)=C1 Test system: OVCAR-4 ovarian Read-out: TGI Value: ? 12
